Source of measurements: paper PMC9482650

# target under test: LNX1_3, Q8TBB1
# Sequence (Q8TBB1 500-596): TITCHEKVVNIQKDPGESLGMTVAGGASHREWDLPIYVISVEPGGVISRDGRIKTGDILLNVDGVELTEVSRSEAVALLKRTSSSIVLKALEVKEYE
# assay summary: holdup assay
# Parameters: key: below the threshold = too weak to quantify, mostly under pKd 3.1 to 4
# condition context: plain residues with an end cap or a label only (N-terminal biotin on a linker: ado-ado)
value type: pKd

Sample answers from the record:
Documented pKd of KKMPSIESDV [GRIN2A, Q12879] : below the threshold

Documented pKd of SGSLKLMTTV [DACT1, Q9NYF0] : below the threshold

Documented pKd of PPYRHRNTVV [ERBB4, Q15303] : below the threshold

Documented pKd of QSPANIYYKV [EFNB1, P52799] : 4.38

Documented pKd of SSALYGESDL [ACTN2, P35609] : below the threshold

New cases:
Documented pKd of EVNETDDTKM [KCNJ1, P48048] : below the threshold
